Each entry below carries its reported Ki.
Target: KAT8 Full length enzyme (Homo sapiens (Human), UniProt Q9H7Z6)
Sequence (Q9H7Z6 whole entry): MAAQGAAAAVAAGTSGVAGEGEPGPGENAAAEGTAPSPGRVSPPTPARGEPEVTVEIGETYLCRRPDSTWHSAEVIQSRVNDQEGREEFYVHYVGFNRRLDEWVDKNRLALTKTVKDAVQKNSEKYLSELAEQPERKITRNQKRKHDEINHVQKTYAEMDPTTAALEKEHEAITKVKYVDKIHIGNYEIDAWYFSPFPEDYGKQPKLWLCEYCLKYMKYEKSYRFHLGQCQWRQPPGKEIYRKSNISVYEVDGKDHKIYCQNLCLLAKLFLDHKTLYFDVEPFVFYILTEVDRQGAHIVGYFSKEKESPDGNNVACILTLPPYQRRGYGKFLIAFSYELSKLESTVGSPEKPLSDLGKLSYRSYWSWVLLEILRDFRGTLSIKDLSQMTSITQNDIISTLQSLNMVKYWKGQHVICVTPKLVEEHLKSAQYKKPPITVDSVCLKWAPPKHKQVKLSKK
Assay: KAT8 assay (SAMDI-MS acetylation of H3 1-21 peptide)
Format: biochemical
Details: Morrison equation fit; replicate number in parentheses; read-out: KAT8 Ki (nM) (replicate number)

Record excerpt, results attached:
compound="COc1cc(F)c(F)cc1S(=O)(=O)Nc1noc2cc(Nc3cc(C4CC4)n[nH]3)c(F)c(OC)c12 [Example 100]" measurement_name=Ki recorded_value="> 13000 nM"
compound="CCn1ccc(Nc2cc3onc(NS(=O)(=O)c4c(OC)cccc4OC)c3cc2OC)n1 [Example 39]" measurement_name=Ki recorded_value="> 32600 nM"
compound="COc1cc2c(NS(=O)(=O)c3ccccc3OC)noc2cc1Nc1cc(C)n[nH]1 [Example 06]" measurement_name=Ki recorded_value="> 13000 nM"
compound="CCc1cc(Nc2cc3onc(NS(=O)(=O)c4cccc(-c5ccc(OC)cc5)c4)c3cc2OC)[nH]n1 [Example 137]" measurement_name=Ki recorded_value="> 13000 nM"
compound="COc1cccc(F)c1S(=O)(=O)Nc1noc2cc(Nc3cc(C4CC4)n[nH]3)c(F)c(OC)c12 [Example 81]" measurement_name=Ki recorded_value="> 13000 nM"
compound="COc1cc2c(NS(=O)(=O)c3c(OC)cccc3OC)noc2cc1Nc1cc2n(n1)CC[C@@H]2C (single isomer, unassigned) [Example 89]" measurement_name=Ki recorded_value="> 12200 nM"
compound="COc1cc2c(NS(=O)(=O)c3c(OC)cccc3OC)noc2cc1Nc1nc(C)cc(C)n1 [Example 108]" measurement_name=Ki recorded_value="> 13000 nM"
compound="CCc1ccc(S(=O)(=O)Nc2noc3cc(Nc4cc(CC)[nH]n4)c(OC)cc23)cc1 [Example 136]" measurement_name=Ki recorded_value="> 13000 nM"

Lab note: compound CCc1cc(Nc2cc3onc(NS(=O)(=O)c4cccc(Oc5ccc(C)cc5)c4)c3cc2OC)n[nH]1 [Example 126] tested on KAT8 Full length enzyme (Homo sapiens (Human), UniProt Q9H7Z6); recorded Ki was > 13000 nM

Lab note: compound CCc1cc(Nc2cc3onc(NS(=O)(=O)c4ccc(Oc5ccccc5)cc4)c3cc2OC)n[nH]1 [Example 132] tested on KAT8 Full length enzyme (Homo sapiens (Human), UniProt Q9H7Z6); recorded Ki was > 13000 nM

Lab note: compound COc1cc2c(NS(=O)(=O)c3ccccc3OC)noc2cc1Nc1cc(C(C)C)[nH]n1 [Example 65] tested on KAT8 Full length enzyme (Homo sapiens (Human), UniProt Q9H7Z6); recorded Ki was > 13000 nM

Lab note: compound CCc1cc(Nc2cc3onc(NS(=O)(=O)c4ccc(C(=O)NCCCCCN)cc4OC)c3cc2OC)[nH]n1 [Example 96] tested on KAT8 Full length enzyme (Homo sapiens (Human), UniProt Q9H7Z6); recorded Ki was > 13000 nM

// data source = patent US20250122183A1
